Values were extracted from PubChem BioAssay (NCI).

Test system: SF-268 CNS
Experiment: NCI tumour cell line growth inhibition, 48 h
The reader will find reported TGI values listed item by item below.
recorded-metric: TGI

• COc1ccc(C(=O)/C=C/c2ccc(Cl)cc2)cc1S(N)(=O)=O = 11.9 µM
• CSc1nc2ccccc2c(=O)n1/N=C1\C(=O)N(CN2CCOCC2)c2ccc(Cl)cc21 = > 100 µM
• COc1ccc(C(=O)CC2(O)C(=O)Nc3c(Cl)ccc(Cl)c32)cc1 (configuration not stated) = > 61.1 µM
• CC1=NN(c2cccc(Cl)c2)C2(C1)C(Cl)C(=O)N2c1nc2ccccc2s1 (configuration not stated) = > 100 µM
• COc1ccc(NC(=O)c2ccc(NC3=C(Cl)C(=O)N(Cc4ccccc4)C3=O)cc2)cc1 = > 100 µM
• CN(C)C1(C#N)CCC2(CC1)OCCO2 = > 100 µM
• COc1c(O)c2ccccc2c2cc(O)ccc12 = 28.8 µM
• COC1CC(OC2OC(CO)C(O)C(O)C2O)/C(=C\C#N)C(O)C1OC (configuration not stated) = > 100 µM
• COc1ccc([C@H]2c3cc(OC)c(OC)cc3C=C(C=O)C2CO)cc1OC (some centres not stated) = > 100 µM
• Cc1oc2nc1C(=O)NCc1nc(cs1)C(=O)N[C@H](C(C)C)c1nc(cs1)C(=O)N[C@H]2C = > 100 µM
• CCCCc1ccc2nc(NC(=O)OC)[nH]c2c1 = 16.9 µM
• CCN1CCN(C(=O)[C@]23CC[C@@H](C)[C@H](C)[C@@H]2C2=CC[C@@H]4[C@@]5(C)C/C(=C/c6cccnc6)C(=O)C(C)(C)[C@@H]5CC[C@@]4(C)[C@]2(C)CC3)CC1 = 4.02 µM
• Cn1ccnc1CCc1ccc(F)cc1F = > 100 µM
• COc1cc(Oc2nc3ccccc3nc2C(=O)O)cc(OC)c1OC = > 100 µM
• O=P(O)(O)OC1C(OP(=O)(O)O)C(OP(=O)(O)O)C(OP(=O)(O)O)C(OP(=O)(O)O)C1OP(=O)(O)O (configuration not stated) = > 2000 µM
• CO/C(=N\N=C\c1ccc(Cl)cc1)c1ccncc1 = > 100 µM
• O=C(CCc1cccc(O)c1)NCCc1cccc(O)c1 = > 100 µM
• O=C1CCCC1C(=O)Nc1ccc2ccccc2c1 (configuration not stated) = > 100 µM
• CC(C)Oc1cc(OCC(=O)O)cc(C(=O)N(CCC(N)=O)C(=O)Nc2ccc(C(=O)O)cc2OC(C)C)c1 = > 100 µM
• Cc1cc2c(-c3nc4ccccc4[nH]3)c(O)c(O)cc2c(O)c1-c1c(C)cc2c(-c3nc4ccccc4[nH]3)c(O)c(O)cc2c1O = 3.72 µM
• COC(=O)C1Cc2c([nH]c3ccccc23)[C@H](CC(C)C)N1 (some centres not stated) = > 100 µM
• O=c1c2ccccc2oc2c1ccc1ncccc12 = 78.2 µM

----------
Tested on: SK-MEL-28 melanoma
Experiment: NCI tumour cell line growth inhibition, 48 h
recorded-metric: TGI (µM)

• COc1ccc(/C=C2/SC(=Nc3c(C)nn(-c4ccccc4)c3N)NC2=O)cc1 = 50.5
• O=C1Cc2c(-c3ccc(Cl)cc3)cc(-c3ccccc3)nc2-c2ccccc2N1 = 34.8
• FC(F)(F)c1ccc2nc(-c3nc(-c4ccccc4)n4ccccc34)[nH]c2c1 = 31.6

----------
Tested on: CCRF-CEM leukemia
Test: NCI tumour cell line growth inhibition, 48 h
recorded-metric: TGI

- Cc1c(-c2ccccc2)c(C#N)c2nnn(-c3ccccc3)c(=O)n12: > 100 µM
- N/C(=N\N=C\c1ccc2c(c1)OCO2)NO: 51.1 µM
- CCN1CCC(C(=O)Nc2n[nH]c3nnc(-c4cccc(F)c4F)cc23)CC1: > 25 µM
- COc1cc(Oc2nc3ccccc3nc2C(=O)O)cc(OC)c1OC: > 100 µM
- Cc1c(C(=O)/C=C/c2ccco2)[n+](=O)c2ccccc2n1[O-]: > 100 µM
- N#CCCNCCN(CCN(C(=O)Nc1ccccc1)c1ccccc1)C(=O)Nc1ccccc1: > 100 µM
- CCCSc1cc(Cl)c(C)cc1S(=O)(=O)n1ccnc1OCCCN(C)C: > 100 µM
- O=C(Nc1ccccc1)c1cc2c(cc1Cl)Sc1nccn1S2(=O)=O: > 75.5 µM
- O=C(CCCCCCc1nc2ccc(Br)cc2[nH]1)NO: > 100 µM
- CC(C)c1ccc2c(c1)CCC1C(C)(C)[C@@H](O)CC[C@]21C (stereo partly specified): > 100 µM
- COc1ccc(C(=O)O/N=C2\CCCC\C2=C/c2ccccc2)cc1: > 100 µM
- COc1cc2c(cc1OCCCC(=O)Nc1cc(C(=O)Nc3cc(C(=O)Nc4cc(C(=O)NCCCN(C)C)n(C)c4)n(C)c3)n(C)c1)N=C[C@@H]1CCCN1C2=O: > 100 µM
- CC/C=C/[C@@H]1C=C[C@@H]2CCC[C@H]2[C@@H]1CC[C@H](O)[C@H](C)N: 84.3 µM
- CC(=O)OCC1OC(n2cc(F)c(=O)[nH]c2=O)C(OC(C)=O)C1OC(C)=O (stereo unspecified): > 100 µM
- Cc1cccc2c1C(=O)C1(Cc3ccccc3C1=O)C2 (stereo unspecified): > 100 µM
- CC(=O)O[C@@H]1C=CC(=O)C2(CC(=O)O[C@@H]2/C=C(\C)CCC=C(C)C)C1 (stereo partly specified): 0.543 µM
- C/C(O)=C/c1nc2ccccc2nc1/C=C(/C)O: 45.9 µM
- CCOC(=O)c1c(SC(=O)c2cc(OC)c(OC)c(OC)c2)n(-c2ccccc2)c(=S)n(-c2ccccc2)c1=O: > 100 µM
- COc1ccc2oc(S(=O)(=O)N3CC(CCl)c4ccc([N+](=O)[O-])cc43)cc2c1 (stereo unspecified): > 100 µM
- CCCC(Sc1nc(N)nc2nc[nH]c12)C(=O)O (stereo unspecified): > 100 µM
- Cc1ccccc1N=C(N)NC#N: > 100 µM

----------
Tested on: HCT-116 colon
Assay: NCI tumour cell line growth inhibition, 48 h; in the data active = GI50 below about 0.43 µM; inactive = the rest
Classes used: active, inactive

- COc1ccc(/C=C2/SC(=Nc3c(C)nn(-c4ccccc4)c3N)NC2=O)cc1: inactive
- CCCCc1ccc2nc(NC(=O)OC)[nH]c2c1: active
- COc1ccccc1/C=C1\COc2ccc(O)c(O)c2C1=O: inactive
- Cc1nc2c(cnn2-c2ccnc3c(C(F)(F)F)cccc23)c(=O)o1: inactive
- CCN(CC)CCn1c(=N)n(CC(O)c2ccc(Cl)c(Cl)c2)c2ccccc21 (configuration not stated): inactive
- O=c1ccc2nc(-c3ccccc3)nn(-c3ccccc3)c-2c1: inactive
- COc1ccc(C(=O)/C=C/c2ccc(Cl)cc2)cc1S(N)(=O)=O: inactive

----------
Test system: UO-31 renal
Assay: NCI tumour cell line growth inhibition, 48 h
The reader will find reported TGI values listed item by item below.
recorded-metric: TGI

• CC(C)OC(=O)c1ccc(NCC2=CC(=O)C=CC2=O)cc1Cl = 13.9 µM
• CCc1nc(N)nc(N)c1-c1ccc(Cl)cc1 = > 100 µM
• CC/C(Cl)=N\OC(=O)Nc1ccc(OC)cc1 = 20.8 µM
• CC(C)CC(=O)NC(Nc1ccc(S(=O)(=O)Nc2ncccn2)cc1)(C(F)(F)F)C(F)(F)F = > 100 µM
• Cc1nc2c(cc1C(=O)NN)c(=O)n(C)c(=O)n2C = > 100 µM
• COc1ccc(C2SC(N)=Nc3c2c(C)nn3C(=O)c2ccncc2)cc1 (stereo not given) = > 100 µM
• FC(F)(F)c1ccc2nc(-c3nc(-c4ccccc4)n4ccccc34)[nH]c2c1 = 18.6 µM
• O=C(c1ccccc1)c1nnn(Cc2cccc(Cl)c2)c1C(=O)c1ccccc1 = > 100 µM
• Cc1nc2c(cnn2-c2ccnc3c(C(F)(F)F)cccc23)c(=O)o1 = > 100 µM
• CC(=O)NNc1nc(C)c(C(/C=C/c2ccc(/C=C/C(=N\NC(=O)c3ccncc3)c3sc(NNC(C)=O)nc3C)cc2)=N/NC(=O)c2ccncc2)s1 = > 100 µM

----------
Tested on: SNB-75 CNS
Assay: NCI tumour cell line growth inhibition, 48 h
recorded-metric: TGI

* N#Cc1c([N+](=O)[O-])cc(C(F)(F)F)cc1[N+](=O)[O-] | 20.1 µM
* CC(=O)NC1(C)CCC(C(C)(C)NC(C)=O)CC1 (stereo unspecified) | > 100 µM
* CCNC(=S)N/N=C/c1cc(OC)ccc1O | > 100 µM
* CC(C)NC(=O)OCc1nnn2c1C(OC(=O)NC(C)C)CC2 (stereo unspecified) | > 100 µM
* O=C(O)Cc1ccc(Oc2nc3ccccc3nc2-c2cccs2)cc1 | 83.2 µM
* COc1ccc(C(=O)c2cc3c(N)c(C(=O)Nc4cccc(Cl)c4)sc3nc2C)cc1 | 2.75 µM
* O=c1c(Cl)nsnc1Cl | > 53.1 µM
* COC1CCC(=C2C(=O)OC(C)(C)OC2=O)N1 (stereo unspecified) | > 100 µM
* COC12C=C/C(=C(/C(=O)OCc3ccncn3)C(=O)CCCCCCCCC3(OC)C=C/C(=C(/C(=O)OCc4ccncn4)C(=O)CCCCCCCC1)O3)O2 | 17.7 µM
* CCOC(=O)C(=[N+]=[N-])C(=O)C[N+]12CCN(CC1)CC2 | > 100 µM
* O=C1Cc2c(-c3ccc(Cl)cc3)cc(-c3ccccc3)nc2-c2ccccc2N1 | 14.2 µM
* CCc1nc(N)nc(N)c1-c1ccc(Cl)cc1 | > 100 µM
* Cc1c2c(n3c(nc4ccccc43)c1C#N)SCC2 | > 10 µM
* COc1ccc(NC(=O)CC/C(CC(=O)c2ccco2)=N/Nc2ccc([N+](=O)[O-])cc2[N+](=O)[O-])cc1 | > 100 µM
* COc1c(-c2cc(C)c(Cl)c(=O)[nH]2)c(O)c(OC)c2occc12 | > 100 µM
* Cc1ccc(S(=O)(=O)NC(=O)NC(Cc2c[nH]c3ccccc23)C(=O)O)cc1 (stereo unspecified) | > 100 µM
* COC(c1ccsc1)C(C#N)(C#N)N=Cc1ccsc1 (stereo unspecified) | 29.9 µM
* O=C(O)CC(NC(=O)Nc1ccc([N+](=O)[O-])cc1)C(=O)Nc1ccc([N+](=O)[O-])cc1 (stereo unspecified) | > 100 µM
* CCc1ccc(Cc2ccc(CC)c(NC(=O)C(=O)Cc3nc4ccccc4nc3C)c2CC)c(CC)c1NC(=O)C(=O)Cc1nc2ccccc2nc1C | 44.4 µM
* Cc1ccccc1N=C(N)NC#N | > 100 µM
* COc1ccc2oc(S(=O)(=O)N3CC(CCl)c4ccc([N+](=O)[O-])cc43)cc2c1 (stereo unspecified) | > 36.8 µM
